assay-protocol: NCI Yeast Anticancer Drug Screen. Data for the wt1 strain (AID 149);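 note: 0% = growth of vehicle-treated wt1 cultures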
measurement-conditions: S. cerevisiae wt1 strain (SPY 50644) growth inhibition; at 33.0 µM
This is part of a sample that, as a whole, favours compounds with a hit. Of some 79,000 tested, about 15% had one in any assay. Active and inactive are the calls of the source. Cut-off read from the data, not from the text of the source: active = growth inhibition above about 70%; inactive = the rest.
Lab note: assign the record to one of 1 = active, 0 = inactive

Please review the entries below; each comes with its answer.
molecule	category-label
O=C(/C=C\c1cccc(C(F)(F)F)c1)c1ccccc1	0
O=C(O)c1cc2ccc(Cl)cc2c(O)c1C1=CCCCC1	0
Cc1ccc(Sc2ccccc2N)cc1	0

Here is another molecule to look at.
[ask] Record lookup: outcome of this test for "O=C(/C=C/c1cc(Cl)cc(Cl)c1O)c1cccc(O)c1" ?
[reply] 1

====

assay-protocol: NCI Yeast Anticancer Drug Screen. Data for the bub3 strain (AID 167)
measurement-conditions: S. cerevisiae bub3 mutant strain, at 1.2 µM, hits give high values
Compounds without any hit were thinned out: in the full panel of roughly 79,000, 15% have a hit.
measured-quantity: growth inhibition (%)
One number for each entry, in %.

Some solved cases for reference:
molecule	growth inhibition / %
CC1CC(C)(C)CC(OCCN2CCCCC2)(c2ccccc2)C1 (configuration not stated)	-3
CCCCOCn1c(=O)[nH]c(=O)c2cc(Br)ccc21	-46
O=C1C(Br)=C(c2ccccc2)O/C1=C/C(=O)c1ccc(Br)cc1	-2
CN(C)c1ccc(N=Nc2ccncc2)cc1	4
CN(C)CCNC(=O)c1cccc2c1Oc1c(cccc1[N+](=O)[O-])O2	25
C=C(C(=C)n1nnc(C(=O)OC)c1C(=O)OC)n1nnc(C(=O)OC)c1C(=O)OC	-1
O=C(/C=C\c1cccc(C(F)(F)F)c1)c1ccccc1	-2
c1ccc2c(OCC3CO3)cccc2c1 (configuration not stated)	-3
N#CC(=Nc1ccccc1F)Nc1ccccc1F	-3
OCc1ccccc1Cc1ccccc1	2

# return growth inhibition for each item in the list
1. CCOC(=O)COc1c(OC)cc(C2C3=C(COC3=O)Oc3cc4c(cc32)OCO4)cc1OC (configuration not stated)
2. Cc1cc(C(C)(C)CC(C)(C)C)ccc1O

[reply]
[-4, -9]

====

assay-protocol: NCI Yeast Anticancer Drug Screen. Data for the CLN2oe strain (AID 163);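 note: 0% = growth of vehicle-only control cultures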
measurement-conditions: S. cerevisiae CLN2oe strain, at 100.0 µM, hits give high values
About 79,000 compounds went through this panel and 15% of them were active in at least one assay; those are over-represented in the sample as a whole.
measured-quantity: growth inhibition (%)
Numbers only, in %.

compound	growth inhibition (%)
O=C(NNc1ccccc1)c1ccc(Cl)c(Cl)c1	40

Could you report growth inhibition for every entry in the following list?
1. NCCNCCNc1ccc(NCCNCCN)c2c1C(=O)c1c(O)ccc(O)c1C2=O
2. O=C(NO)Nc1cc(Cl)cc(Cl)c1
3. c1ccc(-c2cnc3ccccc3c2)cc1
4. Cc1cc(C)c(NC(=S)NC(=O)c2ccccc2)cc1C
5. O=C(O)CNC(=S)Nc1ccccc1

[reply]
1. 40
2. 98
3. 97
4. -57
5. 86

====

assay-protocol: NCI Yeast Anticancer Drug Screen. Data for the mgt1 strain (AID 153)
measurement-conditions: S. cerevisiae mgt1 mutant growth inhibition; at 3.7 µM; hits give high values
The panel holds about 79,000 compounds, 15% with a hit somewhere; the sample as a whole holds those more often.
I'd be grateful if you could share measured growth inhibition for these entries.
One number for each entry, in %.

Solved cases below.
compound	measurement-unit	growth inhibition
CCCCOP(=O)(CCCP(=O)(OCCCC)OCCCC)OCCCC	%	-3
CC(C)/C(Cl)=N\OC(=O)Nc1ccc(F)cc1F	%	1
O=C(O)c1ccccc1/C=N/N=C1c2ccccc2-c2ccccc21	%	0
CN(C)CCNC(=O)c1cccc2cc([N+](=O)[O-])ccc12	%	4
O=C(/C=C(/c1ccccc1)N1CCCCC1)c1ccccc1	%	-2

// for each compound in input: emit growth inhibition
1. CCCCCCN(CCCCCC)CC(O)c1ccnc2ccc(OC)cc12 (centres undefined)
2. CCCCCCCCCCCCNC(C)=O

[reply]
1: 2; 2: -6

Could you tell me growth inhibition for each of these compounds? They are listed below.
1. CC(C)(CCCCC(C)(C)[N+](C)(C)C)[N+](C)(C)C
2. O=C1OC(C2=CC(=O)c3ccccc3C2=O)C(Cl)=C1Cl (centres undefined)
3. O=[N+]([O-])c1cc[n+]([O-])cc1
4. CSc1nnc(SC)nn1
5. O=C1CSC(c2cccc(Cl)c2)N1c1ccc(-c2ccc(-n3c(-c4ccccc4)nc4ccccc4c3=O)cc2)cc1 (centres undefined)

[reply]
1. -3
2. 0
3. -4
4. 4
5. 2

Provide growth inhibition for all items below, preserving their order.
1. Clc1ccc(NCNC2Nc3ccccc3N2)cc1Cl
2. CC1(C)CC(=O)C(/C=N/c2nc(-c3ccccc3)cs2)=C(O)C1

[reply]
1: -3; 2: -2

Report growth inhibition for every entry below.
1. CCOC(=O)COc1c(OC)cc(C2C3=C(COC3=O)Oc3cc4c(cc32)OCO4)cc1OC (centres undefined)
2. NC(N)=NS(=O)(=O)c1ccc(Nc2c3ccccc3nc3c(C(=O)NCCO)cccc23)cc1
3. CC(C)c1ccc(NC(=S)NC(=O)c2ccccc2)cc1
4. CCc1cc(O)c(Cl)c(C)c1Cl

[reply]
1: 2; 2: -4; 3: -23; 4: 3

Could you report growth inhibition for every entry in the following list?
1. Cc1cc(C(C)(C)CC(C)(C)C)ccc1O
2. CC(=O)ON=C1C=CC(=C(C#N)c2ccc(Cl)cc2)C=C1
3. CC(=O)SC(C[N+](=O)[O-])c1ccccc1 (centres undefined)
4. CCCCc1ccc(-n2c(C)c(COC(=O)NC)c(COC(=O)NC)c2C)cc1

[reply]
-66
2
4
-41

# return growth inhibition for each item in the list
1. CCCCOCn1c(=O)[nH]c(=O)c2cc(Br)ccc21
2. C[C@@](O)(/C=C/[C@H]1CC=CC(=O)O1)[C@@H](C[C@@H](O)\C=C/C=C\C=C\CO)OP(=O)(O)O

[reply]
1: -36; 2: 28
